For each of the compounds below, state its K.
System: Escherichia coli
Procedure text: Binding affinity to Escherichia coli sliding clamp assessed as dissociation rate constant by ITC analysis
*1 amine or outer side, *2 acyl side, *3 side chain or, on linkers, in order; H or OH if unused. Where a SMILES comes first, the peptide text is derived from it. [ ]: non-standard residue; d: D form. The star is where a group is joined. N(3-imidazol-1-ylpropyl)Gly = O=C(O)CNCCCn1ccnc1; Acryloyl(3-(3-pyridyl),E) = O=C(/C=C/c1cccnc1)*; Gly(N-3-morpholinopropyl) = O=C(O)CNCCCN1CCOCC1; Phe(3,4-Cl2) = N[C@@H](Cc1ccc(Cl)c(Cl)c1)C(=O)O; Oic = O=C(O)[C@@H]1C[C@@H]2CCCC[C@@H]2N1; NH(4-MeO-phenyl) = COc1ccc(N*)cc1; NMeF = CN[C@@H](Cc1ccccc1)C(=O)O; NFurfurylGly = O=C(O)CNCc1ccco1; Cha = N[C@@H](CC1CCCCC1)C(=O)O; NMeD = CN[C@@H](CC(=O)O)C(=O)O; X4 = NC[C@H](Cc1ccccc1)N*; CO = O=C([*:1])[*:2]

// K lookup, key: CC(=O)N[C@@H](CCC(N)=O)C(=O)N[C@@H](CC1CCCCC1)C(=O)N[C@@H](CC(=O)O)C(=O)N[C@@H](CC(C)C)C(=O)N1CCC[C@H]1C(=O)N[C@@H](CC(C)C)C(=O)O (Ac-Q[Cha]DLPL-OH)
1.1 10^-2/s

How about CC(C)C[C@H](NC(=O)[C@H](CC(=O)O)NC(=O)[C@H](CC1CCCCC1)NC(=O)[C@H](CCC(N)=O)NC(=O)CNCc1ccco1)C(=O)N[C@@H](Cc1ccccc1)C(=O)O (H-[NFurfurylGly]Q[Cha]DLF-OH) ?
8.6 10^-3/s

CC(=O)N[C@@H](CCC(N)=O)C(=O)N[C@@H](CC1CCCCC1)C(=O)N[C@@H](CC(=O)O)C(=O)N[C@@H](CC(C)C)C(=O)N(C)[C@@H](Cc1ccccc1)C(=O)O (Ac-Q[Cha]DL[NMeF]-OH) , same question.
5.4 10^-2/s

Try this compound next: CC(C)C[C@H](NC(=O)[C@H](CC(=O)O)N(C)C(=O)[C@H](CC1CCCCC1)NC(=O)[C@H](CCC(N)=O)NC(=O)/C=C/c1cccnc1)C(=O)N1CCC[C@H]1C(=O)N[C@@H](Cc1ccccc1)C(=O)O ({Acryloyl(3-(3-pyridyl),E)}-Q[Cha][NMeD]LPF-OH)
5.2 10^-3/s

Could you do the same for CC(=O)N[C@@H](CCC(N)=O)C(=O)N[C@@H](CC1CCCCC1)C(=O)N[C@@H](CC(=O)O)C(=O)N[C@@H](CC(C)C)C(=O)N1[C@H](C(=O)N[C@@H](Cc2ccc(Cl)c(Cl)c2)C(=O)O)C[C@@H]2CCCC[C@@H]21 (Ac-Q[Cha]DL[Oic][Phe(3,4-Cl2)]-OH) , please?
2.3 10^-3/s

Repeat with CC(=O)N[C@@H](CCC(N)=O)C(=O)N[C@@H](CC1CCCCC1)C(=O)N(C)[C@@H](CC(=O)O)C(=O)N[C@@H](CC(C)C)C(=O)N1CCC[C@H]1C(=O)N[C@@H](Cc1ccc(Cl)c(Cl)c1)C(=O)O (Ac-Q[Cha][NMeD]LP[Phe(3,4-Cl2)]-OH)
7.9 10^-3/s

Next record, please: CC(C)C[C@H](NC(=O)[C@H](CC(=O)O)NC(=O)[C@H](CC1CCCCC1)NC(=O)[C@H](CCC(N)=O)NC(=O)CNCCCn1ccnc1)C(=O)N[C@@H](Cc1ccccc1)C(=O)O (H-[N(3-imidazol-1-ylpropyl)Gly]Q[Cha]DLF-OH)
1.1 10^-2/s

Continue with CC(=O)N[C@@H](CCC(N)=O)C(=O)N[C@@H](CC1CCCCC1)C(=O)N[C@@H](CC(=O)O)C(=O)N[C@@H](CC(C)C)C(=O)N[C@H](CN)Cc1ccccc1 (Ac-Q[Cha]DL-X4)
1.1 10^-2/s

Another compound to look at: CC(=O)N[C@@H](CCC(N)=O)C(=O)N[C@@H](CC1CCCCC1)C(=O)N[C@@H](CC(=O)O)C(=O)N[C@@H](CC(C)C)C(=O)N[C@@H](Cc1ccccc1)C(=O)O (Ac-Q[Cha]DLF-OH)
7.4 10^-3/s

Input COc1ccc(NC(=O)N[C@@H](CCC(N)=O)C(=O)N[C@@H](CC2CCCCC2)C(=O)N(C)[C@@H](CC(=O)O)C(=O)N[C@@H](CC(C)C)C(=O)N[C@@H](Cc2ccc(Cl)c(Cl)c2)C(=O)O)cc1 ({NH(4-MeO-phenyl)-CO}-Q[Cha][NMeD]L[Phe(3,4-Cl2)]-OH)
1.1 10^-3/s

What do you have for CC(C)C[C@H](NC(=O)[C@H](CC(=O)O)NC(=O)[C@H](CC1CCCCC1)NC(=O)[C@H](CCC(N)=O)NC(=O)CNCCCN1CCOCC1)C(=O)N[C@@H](Cc1ccccc1)C(=O)O (H-[Gly(N-3-morpholinopropyl)]Q[Cha]DLF-OH) ?
1.4 10^-2/s
